system: Fusarium solani; assay: Antifungal activity against Fusarium solani at 200 ug/ml after 48 hrs by disc diffusion method; type: functional; conditions: read-out: IZ
Reported property: zone of inhibition at 200 µg/mL (mm)
Answers are plain numbers, in mm.

These recorded examples may help you get a feel for the data.
> print(dat)
                                   compound    tested.target                reported.property  number
1  CC1Sc2sccc2-c2nc(-n3cn[nH]c3=O)sc21 (stereo unspecified)  Fusarium solani  zone of inhibition at 200 µg/mL      24
2            Cn1ncn(-c2nc(-c3ccsc3)cs2)c1=O  Fusarium solani  zone of inhibition at 200 µg/mL      43
3  CC1Sc2sccc2-c2nc(-n3cnn(C(C)C)c3=O)sc21 (stereo unspecified)  Fusarium solani  zone of inhibition at 200 µg/mL      19

Look up zone of inhibition at 200 µg/mL for the entries below, preserving their order.
1. CCn1ncn(-c2nc3c(s2)C(C)Sc2sccc2-3)c1=O (stereo unspecified)
2. CC(C)n1ncn(-c2nc(-c3ccsc3)cs2)c1=O
3. N#CCn1ncn(-c2nc(-c3ccsc3)cs2)c1=O

**Result**
[31, 29, 34]

* * *

What zone of inhibition at 200 µg/mL was measured for each of the following?
tested on: Fusarium solani; test: Antifungal activity against Fusarium solani at 200 ug/ml after 48 hrs by disc diffusion method; type: functional; settings: read-out: IZ
Give bare numbers, in mm.

Would you please look over these solved cases?
> print(dat)
                                   compound                reported.property  number
1  CC1Sc2sccc2-c2nc(-n3cnn(C)c3=O)sc21 (stereo not drawn)  zone of inhibition at 200 µg/mL      26
2  CC(C)Cn1ncn(-c2nc3c(s2)C(C)Sc2sccc2-3)c1=O (stereo not drawn)  zone of inhibition at 200 µg/mL      20

Next compound, zone of inhibition at 200 µg/mL to be filled in.
Observed zone of inhibition at 200 µg/mL on Fusarium solani, entry CCn1ncn(-c2nc(-c3ccsc3)cs2)c1=O , equals 32

* * *

test system: Aspergillus niger; experiment: Antifungal activity against Aspergillus niger at 100 ug/ml after 48 hrs by disc diffusion method; format: functional; conditions: read-out: IZ
Reported property: zone of inhibition at 100 µg/mL (mm)
Answers are plain numbers, in mm.

> print(dat)
                                   compound                reported.property  number
1  CC1Sc2sccc2-c2nc(-n3cn[nH]c3=O)sc21 (stereo not given)  zone of inhibition at 100 µg/mL      26

Go through the list and state zone of inhibition at 100 µg/mL for each entry.
1. CC1Sc2sccc2-c2nc(-n3cnn(CC#N)c3=O)sc21 (stereo not given)
2. CC(C)Cn1ncn(-c2nc3c(s2)C(C)Sc2sccc2-3)c1=O (stereo not given)
3. CC(C)n1ncn(-c2nc(-c3ccsc3)cs2)c1=O

**Result**
[16, 16, 30]

Working through the 5 compounds below one at a time, give zone of inhibition at 100 µg/mL for each.
1. Cn1ncn(-c2nc(-c3ccsc3)cs2)c1=O
2. COCCCn1ncn(-c2nc3c(s2)C(C)Sc2sccc2-3)c1=O (stereo not given)
3. CCn1ncn(-c2nc3c(s2)C(C)Sc2sccc2-3)c1=O (stereo not given)
4. CC(C)Cn1ncn(-c2nc(-c3ccsc3)cs2)c1=O
5. CCn1ncn(-c2nc(-c3ccsc3)cs2)c1=O

**Result**
[39, 37, 23, 26, 21]

* * *

system: Staphylococcus aureus; assay: Antibacterial activity against Staphylococcus aureus at 200 ug/ml after 24 hrs by disc diffusion method; type: functional; conditions: read-out: IZ
# zone of inhibition at 200 µg/mL >= 30 mm gives fulfilled, anything below gives not fulfilled

Previously resolved entries follow.
> print(dat)
                                   compound          tested.target  discrete.label
1  CC1Sc2sccc2-c2nc(-n3cnn(C(C)C)c3=O)sc21 (centres undefined)  Staphylococcus aureus   not fulfilled
2       CC(C)Cn1ncn(-c2nc(-c3ccsc3)cs2)c1=O  Staphylococcus aureus   not fulfilled
3  CC1Sc2sccc2-c2nc(-n3cn[nH]c3=O)sc21 (centres undefined)  Staphylococcus aureus   not fulfilled
4         N#CCn1ncn(-c2nc(-c3ccsc3)cs2)c1=O  Staphylococcus aureus       fulfilled

Moving on to another compound below.
**Query** Has CC1Sc2sccc2-c2nc(-n3cnn(C)c3=O)sc21 (centres undefined) a recorded zone of inhibition at 200 µg/mL greater than or equal to 30 mm?
**Result** not fulfilled

* * *

system: Staphylococcus aureus; assay: Antibacterial activity against Staphylococcus aureus at 200 ug/ml after 24 hrs by disc diffusion method; assay type: functional; conditions: read-out: IZ
Please respond with reported zone of inhibition at 200 µg/mL for every item in the list.
Give bare numbers, in mm.

# example entries with known answers
> print(dat)
                                   compound  number
1  CCn1ncn(-c2nc3c(s2)C(C)Sc2sccc2-3)c1=O (stereo unspecified)      29
2  COCCCn1ncn(-c2nc3c(s2)C(C)Sc2sccc2-3)c1=O (stereo unspecified)      28

For every item below, please supply its zone of inhibition at 200 µg/mL.
1. O=c1[nH]ncn1-c1nc(-c2ccsc2)cs1
2. CC(C)n1ncn(-c2nc(-c3ccsc3)cs2)c1=O

**Result**
1: 28; 2: 27

For each of the compounds below, state zone of inhibition at 200 µg/mL.
1. COCCCn1ncn(-c2nc(-c3ccsc3)cs2)c1=O
2. CC1Sc2sccc2-c2nc(-n3cnn(CC#N)c3=O)sc21 (stereo unspecified)

**Result**
26
17

* * *

tested on: Staphylococcus aureus; assay: Antibacterial activity against Staphylococcus aureus at 100 ug/ml after 24 hrs by disc diffusion method; assay type: functional; conditions: read-out: IZ
Reported property: zone of inhibition at 100 µg/mL (mm)
One number for each entry, in mm.

Solved cases below.
> print(dat)
                    structure.notation  measurement.units  number
1  CC(C)Cn1ncn(-c2nc(-c3ccsc3)cs2)c1=O                 mm      16
2       Cn1ncn(-c2nc(-c3ccsc3)cs2)c1=O                 mm      32

Now look at this entry.
The compound listed as COCCCn1ncn(-c2nc(-c3ccsc3)cs2)c1=O has a reported zone of inhibition at 100 µg/mL of 24

* * *

tested on: Candida albicans; assay: Antifungal activity against Candida albicans at 100 ug/ml after 48 hrs by disc diffusion method; assay type: functional; settings: read-out: IZ
Reported property: zone of inhibition at 100 µg/mL (mm)
Answers are plain numbers, in mm.

Example entries begin here.
> print(dat)
                                   molecule                reported.property  number
1  CC(C)Cn1ncn(-c2nc3c(s2)C(C)Sc2sccc2-3)c1=O (stereo not drawn)  zone of inhibition at 100 µg/mL      17
2  CC1Sc2sccc2-c2nc(-n3cn[nH]c3=O)sc21 (stereo not drawn)  zone of inhibition at 100 µg/mL      25
3       CC(C)Cn1ncn(-c2nc(-c3ccsc3)cs2)c1=O  zone of inhibition at 100 µg/mL      17
4  CC1Sc2sccc2-c2nc(-n3cnn(CC#N)c3=O)sc21 (stereo not drawn)  zone of inhibition at 100 µg/mL      14

Look at each molecule and report its zone of inhibition at 100 µg/mL.
1. CC(=O)N1CCN(c2ccc(OCC3COC(Cn4ccnc4)(c4ccc(Cl)cc4Cl)O3)cc2)CC1 (stereo not drawn) [KETOCONAZOLE]
2. CCn1ncn(-c2nc3c(s2)C(C)Sc2sccc2-3)c1=O (stereo not drawn)
3. CC1Sc2sccc2-c2nc(-n3cnn(C(C)C)c3=O)sc21 (stereo not drawn)
4. Cn1ncn(-c2nc(-c3ccsc3)cs2)c1=O

**Result**
[36, 26, 16, 36]

* * *

tested on: Aspergillus niger; experiment: Antifungal activity against Aspergillus niger at 100 ug/ml after 48 hrs by disc diffusion method; format: functional; settings: read-out: IZ
For each entry below, report its zone of inhibition at 100 µg/mL value.
Numbers only, in mm.

Solved cases below.
> print(dat)
                                   compound  number
1  CC1Sc2sccc2-c2nc(-n3cnn(C)c3=O)sc21 (stereo unspecified)      20
2  CC(=O)N1CCN(c2ccc(OCC3COC(Cn4ccnc4)(c4ccc(Cl)cc4Cl)O3)cc2)CC1 (stereo unspecified) [KETOCONAZOLE]      41
3  CC1Sc2sccc2-c2nc(-n3cnn(C(C)C)c3=O)sc21 (stereo unspecified)      17
4        COCCCn1ncn(-c2nc(-c3ccsc3)cs2)c1=O      26
5         N#CCn1ncn(-c2nc(-c3ccsc3)cs2)c1=O      27

API: the following record is the query input.
// compound O=c1[nH]ncn1-c1nc(-c2ccsc2)cs1 , assay Aspergillus niger, zone of inhibition at 100 µg/mL value: 34
